Experiment: Tmax in human
Type: ADME
readoutType: Tmax

Query: GET /values?readout=Tmax&item= O=C(C1CCCCC1)N1CC(=O)N2CCc3ccccc3C2C1 (stereo unspecified) [PRAZIQUANTEL]
Reply: 3 to 4 h

----------
Experiment: Cytotoxicity against human HeLa cells assessed as cell survival at 40 uM after 24 hrs by MTT assay relative to control
Type: cell-based
Details: read-out: Survival
I'd be grateful if you could share measured viability at 24 h, 40 µM for these entries.

Here's what some known entries look like.
# compound, viability at 24 h, 40 µM
records = [
    ("Nc1ccc2c(c1)C1CN(C(=O)C3CCCCC3)CC(=O)N1CC2 (stereo not drawn)", "> 85%"),
    ("O=C(C1CCCCC1)N1CC(=O)N2CCc3ccc([N+](=O)[O-])cc3C2C1 (stereo not drawn)", "> 85%"),
]

Query compound follows.
Query: Any idea what viability at 24 h, 40 µM was measured for O=C(CCCCCN1C(=O)c2cccc3c(C4CCOCC4)ccc(c23)C1=O)Nc1ccc2c(c1)C1CN(C(=O)C3CCCCC3)CC(=O)N1CC2 (stereo not drawn) ?
Reply: > 85%

----------
Experiment: Protein binding in plasma (unknown origin) relative to control
Assay type: ADME, cell-free
Settings: read-out: PPB
readoutType: fraction unbound

Query: Please give the measured fraction unbound for this compound: O=C(C1CCCCC1)N1CC(=O)N2CCc3ccccc3C2C1 (stereo unspecified) [PRAZIQUANTEL]
Reply: 0.195 to 0.21

----------
Experiment: Fraction absorbed in po dosed monkey
Type: ADME, organism-based, Macaca mulatta
Conditions: rhesus monkey, in vivo, read-out: Fabs
readoutType: Fa

Query: Fill in: Fa of O=C(C1CCCCC1)N1CC(=O)N2CCc3ccccc3C2C1 (stereo unspecified) [PRAZIQUANTEL] is ___
Reply: 75 to 100%

----------
Assay: Fraction absorbed in po dosed rat
Type: ADME, organism-based
Conditions: in vivo, read-out: Fabs
readoutType: Fa

Query: Consider the compound shown here: O=C(C1CCCCC1)N1CC(=O)N2CCc3ccccc3C2C1 (stereo unspecified) What is its recorded Fa?
Reply: 75 to 100%

----------
Target: UniProt P02768
Sequence (P02768 whole entry): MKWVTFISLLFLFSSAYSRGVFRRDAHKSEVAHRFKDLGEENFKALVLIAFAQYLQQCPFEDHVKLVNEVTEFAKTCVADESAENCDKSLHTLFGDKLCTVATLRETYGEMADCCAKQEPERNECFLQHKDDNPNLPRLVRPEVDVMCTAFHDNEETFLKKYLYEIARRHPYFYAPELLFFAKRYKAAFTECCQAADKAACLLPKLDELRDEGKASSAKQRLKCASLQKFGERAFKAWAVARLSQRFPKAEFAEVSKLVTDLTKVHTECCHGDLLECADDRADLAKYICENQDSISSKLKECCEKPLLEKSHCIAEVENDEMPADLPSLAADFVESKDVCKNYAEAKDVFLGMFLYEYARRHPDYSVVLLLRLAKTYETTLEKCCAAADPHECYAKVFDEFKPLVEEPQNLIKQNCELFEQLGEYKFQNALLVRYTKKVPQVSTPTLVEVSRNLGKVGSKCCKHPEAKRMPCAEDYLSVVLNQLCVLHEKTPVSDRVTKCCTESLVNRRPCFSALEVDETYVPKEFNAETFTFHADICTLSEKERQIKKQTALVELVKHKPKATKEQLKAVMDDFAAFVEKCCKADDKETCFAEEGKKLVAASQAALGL
Test: Binding affinity to albumin (unknown origin)
Type: ADME
Settings: read-out: PB
readoutType: fraction unbound

Query: Item O=C(C1CCCCC1)N1CC(=O)N2CCc3ccccc3C2C1 (stereo unspecified) [PRAZIQUANTEL] has what recorded fraction unbound?
Reply: 0.19 to 0.22

----------
System: Plasma
Test: Drug level in human plasma after 1 to 2 hrs
Type: ADME, cell-free
readoutType: Drug uptake

Query: Given O=C(C1CCCCC1)N1CC(=O)N2CCc3ccccc3C2C1 (stereo unspecified) [PRAZIQUANTEL] , state its recorded Drug uptake.
Reply: 5 to 7 %ID

----------
Test: Fraction absorbed in po dosed human
Type: ADME, organism-based
Settings: in vivo, read-out: Fabs
readoutType: Fa

Query: Recorded Fa of O=C(C1CCCCC1)N1CC(=O)N2CCc3ccccc3C2C1 (stereo unspecified) [PRAZIQUANTEL] , please.
Reply: 75 to 100%

----------
Test: Drug excretion in human urine at 15 mg/kg, po
Format: ADME, organism-based
Conditions: read-out: Drug excretion
readoutType: dose excreted

Query: Request the reported dose excreted associated with CC(C)NCC1CCc2cc(CO)c([N+](=O)[O-])cc2N1 (stereo unspecified)
Reply: 0.4 to 1.9%
